Data provenance: patent US11819532B2

# IC50 per entry
System: A. baumannii ATCC 17978
test: 50% growth inhibitory concentration (IC50) determination, antimicrobial susceptibility testing
Format: cell-based
recorded conditions: Acinetobacter baumannii; 50% growth inhibition, A. baumannii strain ATCC17978, Iso-Sensitest medium; read-out: IC50 ATCC17978
observation type: IC50 (µM)

{"smiles data": "Cc1ccc(-c2ccc(C(=O)O)cc2)c2c1Sc1ncccc1CN[C@@H](CCCN)C(=O)N[C@@H](CCCCN)C(=O)N(C)[C@@H](Cc1c[nH]c3ccccc13)C(=O)NC2", "observation type": "IC50", "reported result": 0.024}
{"smiles data": "CN1C(=O)[C@H](CCCCN)NC(=O)[C@H](CCCN)NCc2nccnc2Sc2c(Cl)ccc(-c3ccc(C(=O)O)c(F)c3)c2CNC(=O)[C@@H]1Cc1c[nH]c2ccccc12", "observation type": "IC50", "reported result": 0.019}
{"smiles data": "CN1C(=O)[C@H](CCCCN)NC(=O)[C@H](CCCN)NCc2cccnc2Sc2c(Cl)ccc(-c3ccc(C(=O)O)c(S(C)(=O)=O)c3)c2CNC(=O)[C@@H]1Cc1c[nH]c2ccccc12", "observation type": "IC50", "reported result": 0.073}
{"smiles data": "CN1C(=O)[C@H](CCCN)NC(=O)[C@H](CCCN)NCc2cccnc2Sc2c(Cl)ccc(-c3ccc(C(=O)O)cc3)c2CNC(=O)[C@@H]1Cc1c[nH]c2ccccc12", "observation type": "IC50", "reported result": 0.019}

----------
test: Plasma precipitation screening assay
Set-up: species or system rat
recorded conditions: Wistar (Hanbrl:Wist SPF), rat, 10 min
As shown below, each of these compounds has a reported Plasma precipitation MEC value.

{"compound": "CN1C(=O)[C@H](CCCN)NC(=O)[C@H](CCCN)NCc2cccnc2Sc2c(F)ccc(-c3ccc(C(=O)O)nc3)c2CNC(=O)[C@@H]1Cc1c[nH]c2ccccc12", "Plasma precipitation MEC": "880 µmol/L"}
{"compound": "CN1C(=O)[C@H](CCCCN)NC(=O)[C@H](CCCN)NCc2cccnc2Sc2cncc(-c3ccc(C(=O)O)cc3)c2CNC(=O)[C@@H]1Cc1c[nH]c2ccccc12", "Plasma precipitation MEC": ">1760 µmol/L"}
{"compound": "CN1C(=O)[C@H](CCCCN)NC(=O)[C@H](CCCN)NCc2nccnc2Sc2c(Cl)ccc(-c3ccc(C(=O)O)c(Cl)c3)c2CNC(=O)[C@@H]1Cc1c[nH]c2ccccc12 (racemic)", "Plasma precipitation MEC": "760 µmol/L"}
{"compound": "COc1cc(-c2ccc(Cl)c3c2CNC(=O)[C@H](Cc2c[nH]c4ccccc24)N(C)C(=O)[C@H](CCCCN)NC(=O)[C@H](CCCN)NCc2nccnc2S3)ccc1C(=O)O (racemic)", "Plasma precipitation MEC": "760 µmol/L"}
